Would you mind telling me the reported TGI of each entry?
# Tested on: HL-60(TB) leukemia
# assay.remarks: NCI tumour cell line growth inhibition, 48 h
One number for each entry, in µM.

compound	units.of.measure	TGI
CN(C(=O)C12C3C4C1C1C4(C(=O)C45C6C7C4C4C5C6C74C)C3C12C)C(C)(C)C (stereo not given)	µM	43.2

Respectfully, I request TGI for each entry included below.
1. O=C1CCCCCCCC/C=C\CC(c2ccco2)O1 (stereo not given)
2. O=C1c2cc3c(cc2-c2c1c1ccc(Cl)cc1c(=O)n2CCCNCCO)OCO3
3. COC(=O)c1ccccc1C1CN=NC12Cc1ccc(C)c(C)c1C2=O (stereo not given)
4. Oc1cc(-c2ccccc2)cn2c1nc1ccccc12
5. O=C(Nc1cccc(Cl)c1)c1ccc(NC2=C(Cl)C(=O)N(Cc3ccccc3)C2=O)cc1
6. O=c1c2ccccc2n(C[C@H]2CO2)c2ccccc12
7. CC(C)c1cc(CN(C)C)c(O)c(C(C)(C)C)c1
8. Cc1ccc(/C=C2/SC(Nc3nc(-c4csc(NC5=NC(=O)/C(=C\c6ccc(C)cc6)S5)n4)cs3)=NC2=O)cc1

31
1.08
69.7
9.4
15.2
3.29
15.1
29.9

Respectfully, I request TGI for each entry included below.
1. C=CC(=O)N1CCN(c2nc(=O)n(-c3c(C)ccnc3C(C)C)c3nc(-c4c(O)cccc4F)c(F)cc23)[C@@H](C)C1
2. C/C(=N\Nc1cc(C)c2cc(C)ccc2n1)c1ccccn1
3. Oc1cc(Br)cc2cccnc12
4. CC(=O)OC[C@]1(O)CC[C@@]23CC1C[C@@H]2CCC1C(C)(C)CCC[C@@]13C (stereo not given in full)
5. N#Cc1c(Cl)cccc1Oc1ccc(S(=O)(=O)/N=C(\NN)Nc2ccc(Cl)cc2)cc1
6. C=CC(c1ccccc1)[C@@]1(OC(C)=O)C(=O)C(=O)OC1C1COC(C)(C)O1 (stereo not given in full)
7. O=C1c2ccccc2C(=O)[C@@]23O[C@@]12C1(Oc2cccc4cccc(c24)O1)[C@@H]1O[C@@H]1[C@@H]3O
8. O=c1ccc2nc(-c3ccccc3)nn(-c3ccccn3)c-2c1

[53.8, 0.129, 0.82, 20.4, 47.7, 5.86, 4.89, 4.33]

Lab note: need TGI with HL-60(TB) leukemia for entry CC1=C2C[C@H]3[C@@H](CC[C@@H]4CC(NS(C)(=O)=O)CC[C@@]43C)[C@@H]2CC[C@@]2(C1)O[C@@H]1C[C@H](C)CN[C@H]1[C@H]2C (stereo not given in full) , please look it up.
21.4

---

# Tested on: A498 renal
# assay.remarks: NCI tumour cell line growth inhibition, 48 h
experimental.endpoint: TGI

molecule	TGI
CC(C)(C)C(=O)C(C(=O)C(C)(C)C)C(=O)C(C)(C)C	> 100 µM

Respectfully, I request TGI for each entry included below.
1. COc1ccc(-n2nnnc2-c2c[nH]c3c(F)cc(F)cc23)cc1
2. C=C(C)C1Cc2c(cc(O)c3c(=O)c4c(oc23)C(O)Oc2cc(OC)c(OC)cc2-4)O1 (centres undefined)
3. COC1CC2CCC(C)C(O)(O2)C(=O)C(=O)N2CCCCC2C(=O)OC(C(C)CC2CCC(O)C(OC)C2)CC(=O)C(C)C=C(C)C(O)C(OC)C(=O)C(C)CC(C)/C=C/C=C/C=C1C (centres undefined)

1. > 100 µM
2. > 10 µM
3. 6.86 µM

---

# Tested on: K-562 leukemia
# assay.remarks: NCI tumour cell line growth inhibition, 48 h
Would you mind telling me the reported GI50 of each entry?

Some solved cases for reference:
molecule	GI50
N#Cc1nc2c(S(=O)(=O)c3ccccc3)c(N)n(Cc3cccnc3)c2nc1C#N	> 100 µM
C/C(=N\Nc1cc(C)c2cc(C)ccc2n1)c1ccccn1	0.095 µM
Cc1cc2nc3c4cc(N)ccc4n(CCN(C)C)c3nc2cc1C	0.421 µM
O=C1C(Cl)=C(Nc2cccc(Cl)c2)C(=O)N1Cc1ccccc1Cl	1.87 µM
CCOC(=O)c1[nH]c(Br)c(-c2ccc(Br)cc2)c1Br	0.193 µM
O=C(/C=C/c1cccnc1)NCCCCC1CCCN(C(=O)c2ccccc2)C1 (stereo unspecified)	< 0.01 µM
Cn1c(/C=C(\C#N)c2ccccc2)nc2c(N3CCOCC3)nc(Cl)nc21	0.348 µM
O=C1CCCCCCCC/C=C\CC(c2ccco2)O1 (stereo unspecified)	23.5 µM
Ic1ccccc1-c1ccccc1	> 100 µM
O=C(Nc1cc(Cl)cc(Cl)c1)c1ccc(NC2=C(Cl)C(=O)N(Cc3ccc(Cl)cc3Cl)C2=O)cc1	1.33 µM

I am curious: what GI50 value has been reported for COc1cc(C)c(Cl)cc1C1=NN(c2ccc(S(N)(=O)=O)cc2)C(/C=C/c2ccccc2)C1 (stereo unspecified) ?
5.29 µM

---

# Tested on: HS 578T breast
# assay.remarks: NCI tumour cell line growth inhibition, 48 h
experimental.endpoint: TGI (µM)
Answers are plain numbers, in µM.

compound	TGI, µM
C/C(=N/Nc1nc2ccccc2n1C)c1ccccn1	25.6

Respectfully, I request TGI for each entry included below.
1. CC(C)(C)c1nn(-c2ccccc2)c2c1C(=O)CSC(c1ccccc1Cl)N2 (stereo unspecified)
2. O=C(CNc1cccc([N+](=O)[O-])c1)Nn1c(-c2ccccc2)nc2ccccc2c1=O
3. CCOC(=O)C(/C=N\C(=S)Nc1ccc(Cl)c(Cl)c1)=C(/O)c1ccccc1
4. CCCCCCCCCc1cc(-c2ccc(C=O)s2)sc1-c1ccc(C=O)s1

7.22
3.6
10.5
46.5

---

Would you mind telling me the reported TGI of each entry?
# Tested on: OVCAR-4 ovarian
# assay.remarks: NCI tumour cell line growth inhibition, 48 h

Some solved cases for reference:
compound	TGI
Cn1nc2ccc3nccc(N4CCN(CCO)CC4)c3c2n1	> 100 µM
N[C@@H]1CCCC[C@H]1N.O=C([O-])C(=O)[O-].[Pt+4]	83.8 µM

Respectfully, I request TGI for each entry included below.
1. NC(=S)N/N=C(\Cc1nc2ccc(Cl)cc2[nH]c1=O)C(=O)Nc1ccc(Cl)cc1
2. c1ccc(N=C(Nc2ccccc2)N2CCCCC2)cc1
3. c1ccc(Cc2nc(Cc3n[nH]c(Cc4ccccc4)n3)n[nH]2)cc1
4. N#Cc1c(O)c(N=Nc2ccccc2F)c(=O)n2c1[nH]c1ccccc12
5. O=C(CSc1nc2ccccc2s1)c1sc2sc3ccccc3[n+]2c1[O-]
6. COC1CC2CCC(C)C(O)(O2)C(=O)C(=O)N2CCCCC2C(=O)OC(C(C)CC2CCC(O)C(OC)C2)CC(=O)C(C)C=C(C)C(O)C(OC)C(=O)C(C)CC(C)/C=C/C=C/C=C1C (centres undefined)

> 100 µM
> 100 µM
> 100 µM
> 100 µM
> 100 µM
10.5 µM

I am curious: what TGI value has been reported for O=C1c2ccccc2C(=O)c2c(Nc3ccc4c5c(cccc35)C(=O)c3ccccc3-4)cccc21 ?
> 100 µM

---

# Test system: COLO 205 colon
# assay.remarks: NCI tumour cell line growth inhibition, 48 h; in the data active = GI50 below about 0.43 µM; inactive = the rest
// one of 1 for active, -1 for inactive, no free text

Take a look at these entries with their results.
compound	test.system	discrete.label
CC(=O)[CH-]C(=O)c1ccccc1.CC(=O)[CH-]C(=O)c1ccccc1.CC(C)CCCC(C)[C@H]1CCC2[C@@H]3CC=C4C[C@@H]([O-])CC[C@]4(C)C3CC[C@@]21C.CC[O-].[Ti+4] (stereo partly specified)	COLO 205 colon	-1
NC(N)=N/N=C\c1cccc(OCc2ccccc2)c1	COLO 205 colon	-1
C/C(=N/Nc1nc2ccccc2n1C)c1ccccn1	COLO 205 colon	1
COc1cc2cc(Oc3ccc(NC(=O)Nc4cccc(C(F)(F)F)c4)cc3)c(C)nc2cc1OC	COLO 205 colon	-1
Cc1c(-c2c(-c3ccc(F)o3)sc3ncnc(O[C@H](Cc4ccccc4OCc4ccnn4CC(F)(F)F)C(=O)O)c23)ccc(OCCN2CCN(C)CC2)c1Cl	COLO 205 colon	-1

Kindly review the next compound as well.
Look up the recorded call for CCOc1ccc(-c2nonc2NC(=O)c2cccc(C)c2)cc1OCC in this test.
-1

---

Would you mind telling me the reported TGI of each entry?
# System: NCI/ADR-RES ovarian
# assay.remarks: NCI tumour cell line growth inhibition, 48 h
Give bare numbers, in µM.

Respectfully, I request TGI for each entry included below.
1. O=C1C(=O)c2ccccc2C(O)=C1CC=C(Br)Br
2. COC(=O)c1ccccc1CC1Cc2ccc3c(c2C1)CCC3 (stereo not given)

87.3
45.7

---

Would you mind telling me the reported TGI of each entry?
# Tested on: HOP-92 NSCLC
# assay.remarks: NCI tumour cell line growth inhibition, 48 h
Give bare numbers, in µM.

Some solved cases for reference:
molecule	reading
COC1CC2CCC(C)C(O)(O2)C(=O)C(=O)N2CCCCC2C(=O)OC(C(C)CC2CCC(O)C(OC)C2)CC(=O)C(C)C=C(C)C(O)C(OC)C(=O)C(C)CC(C)/C=C/C=C/C=C1C (centres undefined)	7.48
CCOc1ccc(-c2nonc2NC(=O)c2cccc(C)c2)cc1OCC	59.1
Cn1c(/C=C(\C#N)c2ccccc2)nc2c(N3CCOCC3)nc(Cl)nc21	2.06
COC(=O)C1(c2cc3ccccc3n2S(=O)(=O)c2ccccc2)CC2C=CC1NC2 (centres undefined)	4.12

Turning now to a further record.
Lab note: need TGI with HOP-92 NSCLC for entry CN(CCCCN1CCCC1)CCCN(C)C(=O)Cc1ccc(Cl)c(Cl)c1 , please look it up.
21.3
